Kindly state folding stability dG for each of the entries shown.
B1: EEHEE_rd3_1049 (parent)
chain: TTVKLGDIKVTFDNPEKAKKYAQKLAKIYQLTVHVHGDTIHVK

- Variants of: B1
- protocolSummary: folding stability dG (cDNA display proteolysis); higher = more stable
- statedConditions: PBS, room temperature
One number for each entry, in kcal/mol.

| sequenceChange | measured |
| --- | --- |
| K19F | 2.93 |
| L25D | -0.607 |
| K20Q | 2.02 |
| G6A | 1.24 |
| G6C | 3.09 |

Please supply folding stability dG for each of the following items, keeping them in order.
1. K9Q
2. H41L
3. K19L
4. T11V
5. H41I

1: 2.06; 2: 2.17; 3: 3.31; 4: 2.42; 5: 2.58
